target: T1, human c-Met (HGFR), full length, on the cell surface (human, UniProt P08581 25-1390); assay: flow cytometry, PC-3 cells, without HGF
T1 construct: Endogenous c-Met on human tumor cell lines MKN45, NCI-H596, PC-3 and HepG2; also called hepatocyte growth factor receptor; mesenchymal-epithelial transition factor
T1 sequence (P08581 25-1390 limits assumed): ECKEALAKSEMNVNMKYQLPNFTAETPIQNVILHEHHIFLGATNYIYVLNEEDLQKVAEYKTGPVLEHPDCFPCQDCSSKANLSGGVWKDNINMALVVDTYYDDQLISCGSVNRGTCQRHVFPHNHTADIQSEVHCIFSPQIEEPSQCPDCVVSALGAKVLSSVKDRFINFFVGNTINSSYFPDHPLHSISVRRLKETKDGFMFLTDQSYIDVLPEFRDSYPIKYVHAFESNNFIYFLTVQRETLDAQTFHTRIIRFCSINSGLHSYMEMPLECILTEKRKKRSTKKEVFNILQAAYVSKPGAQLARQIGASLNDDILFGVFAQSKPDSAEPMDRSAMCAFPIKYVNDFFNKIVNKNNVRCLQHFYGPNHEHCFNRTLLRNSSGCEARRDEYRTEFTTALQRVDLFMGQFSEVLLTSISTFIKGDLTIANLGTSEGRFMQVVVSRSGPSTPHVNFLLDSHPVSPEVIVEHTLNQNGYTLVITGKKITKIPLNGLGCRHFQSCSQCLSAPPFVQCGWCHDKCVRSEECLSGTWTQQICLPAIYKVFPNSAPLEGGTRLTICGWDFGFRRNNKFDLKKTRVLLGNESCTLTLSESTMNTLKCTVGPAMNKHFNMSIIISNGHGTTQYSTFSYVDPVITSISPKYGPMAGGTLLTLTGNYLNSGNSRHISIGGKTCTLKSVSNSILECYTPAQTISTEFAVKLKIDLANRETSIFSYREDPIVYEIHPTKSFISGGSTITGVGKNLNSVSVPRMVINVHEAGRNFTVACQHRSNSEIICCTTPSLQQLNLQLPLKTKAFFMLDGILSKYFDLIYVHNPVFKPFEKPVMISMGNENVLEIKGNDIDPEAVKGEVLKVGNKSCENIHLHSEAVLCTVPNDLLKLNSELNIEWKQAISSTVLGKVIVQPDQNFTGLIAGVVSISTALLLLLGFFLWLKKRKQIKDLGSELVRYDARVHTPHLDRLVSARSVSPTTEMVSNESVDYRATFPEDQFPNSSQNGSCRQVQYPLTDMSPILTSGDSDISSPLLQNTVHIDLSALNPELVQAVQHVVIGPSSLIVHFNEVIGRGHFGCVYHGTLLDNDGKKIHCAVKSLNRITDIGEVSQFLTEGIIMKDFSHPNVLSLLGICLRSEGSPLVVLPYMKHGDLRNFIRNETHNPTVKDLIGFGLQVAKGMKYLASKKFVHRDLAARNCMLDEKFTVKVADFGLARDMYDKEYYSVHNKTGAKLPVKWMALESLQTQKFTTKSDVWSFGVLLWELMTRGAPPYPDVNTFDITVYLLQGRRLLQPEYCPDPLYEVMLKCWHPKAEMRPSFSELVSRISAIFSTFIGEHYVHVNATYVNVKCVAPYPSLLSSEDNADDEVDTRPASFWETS
# EC50 listing for each entry below
Quick reminder: number only, in µg/mL, skip the unit.

Binder: mAb2b (antibody, human IgG1, kappa, V domains shown, Humanized IgG1 kappa, HC-41C, from wt/41C-chi-mAb2; also called humanized HC-41C antibody mAb2b) VH: QVQLVQSGAEVKKPGSSVKVSCKASGYVFPDYEMHWVRQACGQGLEWMGAFDPETGDTTYNQNFKGRVTITADKSTSTAYMELSSLRSEDTAVYYCARDYKYLYYYAMDNWGQGTTVTVSS VL: DIQMTQSPSSLSASVGDRVTITCTASSSITSSYLHWYQQKPGKAPKLLIYSTTNLASGVPSRFSGSGSGTDFTLTISSLQPEDFATYYCHQYRRSPLTFGGGTKLEIKR
Value Units: µg/mL
Measured Value: 0.05
//
Binder: mAb2c (antibody, human IgG1, kappa, V domains shown, Humanized IgG1 kappa, HC-41C, from wt/41C-chi-mAb2; also called humanized HC-41C antibody mAb2c) VH: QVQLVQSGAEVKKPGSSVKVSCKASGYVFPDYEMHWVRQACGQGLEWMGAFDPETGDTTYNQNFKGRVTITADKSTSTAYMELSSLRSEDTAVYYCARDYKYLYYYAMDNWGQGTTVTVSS VL: EIVLTQSPSLLSASIGDRVTIPCTASSSITSSYLHWYQQKPGKAPKLLIYSTTNLASGVPSRFSGSGSGTEFTLTISSLQPEDFATYYCHQYRRSPLTFGGGTKLEIKR
Value Units: µg/mL
Measured Value: 0.03

The reported value for mAb3a (antibody, human IgG1, kappa, V domains shown, Humanized IgG1 kappa, HC-41C, from wt/41C-chi-mAb3; also called humanized HC-41C antibody mAb3a) VH: QVQLVQSGAEVKKPGASVKVSCKASGYTFTDYYLNWVRQACGQGLEWMGLIFPGNDKTEYSEKFKGRVTLTTDTSISTAYMELSSLTSDDTALYYCSGGDYGGFVYWGQGTLVTVSS VL: DIQLTQSPSSLSASVGDRVTITCGASENIYGALNWYQQKPGKAPKLLIYGATNLADGVPSRFSGSGSGTDFTLTISSLQPEDFATYYCQNVLSSPLTFGPGTKVDIKR in terms of EC50 is 0.03
